- Assay system: T1, cynomolgus IL-17A (cynomolgus, UniProt Q16552 24-155 (human entry), limits assumed)
- T1 construct: also called cyno IL-17A; cynoIL-17A
- T1 chain: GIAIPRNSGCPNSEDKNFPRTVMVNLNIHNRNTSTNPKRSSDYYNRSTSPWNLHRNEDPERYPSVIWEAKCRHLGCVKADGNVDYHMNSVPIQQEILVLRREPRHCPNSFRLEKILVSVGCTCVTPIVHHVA
- Procedure details: competition ELISA: mAb against biotinylated cyno IL-17A binding to coated IL-17RA-Fc
pIC50: −log10 of the molar value.
Observable: pIC50

>>> reading("MORmAb7700 (antibody, V domains shown) VH: QVQLVESGGGLVQPGGSLRLSCAASGFTFSSYAMSWVRQAPGKGLEWVSTISMTSGFTYYADSVKGRFTISRDNSKNTLYLQMNSLRAEDTAVYYCARQLMLDVWGQGTLVTVSS VL: DIELTQPPSVSVAPGQTARISCSGDNLGDKYANWYQQKPGQAPVLVIYDDIDRPSGIPERFSGSNSGNTATLTISGTQAEDEADYYCGSYDFFLGMIVFGGGTKLTVL")
9.63
>>> reading("MORmAb8102 (antibody, V domains shown) VH: QVQLQQSGPGLVKPSQTLSLTCAISGDSVSSSSAAWGWIRQSPGRGLEWLGRISYRSKWYNDYAVSVKSRITINPDTSKNQFSLQLNSVTPEDTAVYYCAREVDSLYYSYFDIWGQGTLVTVSS VL: DIVLTQSPATLSLSPGERATLSCRASQNVWAFYLAWYQQKPGQAPRLLIYGASNRATGVPARFSGSGSGTDFTLTISSLEPEDFATYYCTQYYSSPSLTFGQGTKVEIK")
9.08
>>> reading("MORmAb8105 (antibody, V domains shown) VH: QVQLVQSGAEVKKPGSSVKVSCKASGGTFSSYAISWVRQAPGQGLEWMGSIIPWFGYTNYAQKFQGRVTITADESTSTAYMELSSLRSEDTAVYYCARDSEYYFDHWGQGTLVTVSS VL: DIQMTQSPSSLSASVGDRVTITCRASQGISNWLNWYQQKPGKAPKLLIYAASSLQSGVPSRFSGSGSGTDFTLTISSLQPEDFAVYYCQQYSDDPTFGQGTKVEIK")
9.30
